Each entry below carries its recorded IC50.
target_system: p110α/p85α (Homo sapiens (Human), UniProt P42336)
Sequence (P42336 whole entry): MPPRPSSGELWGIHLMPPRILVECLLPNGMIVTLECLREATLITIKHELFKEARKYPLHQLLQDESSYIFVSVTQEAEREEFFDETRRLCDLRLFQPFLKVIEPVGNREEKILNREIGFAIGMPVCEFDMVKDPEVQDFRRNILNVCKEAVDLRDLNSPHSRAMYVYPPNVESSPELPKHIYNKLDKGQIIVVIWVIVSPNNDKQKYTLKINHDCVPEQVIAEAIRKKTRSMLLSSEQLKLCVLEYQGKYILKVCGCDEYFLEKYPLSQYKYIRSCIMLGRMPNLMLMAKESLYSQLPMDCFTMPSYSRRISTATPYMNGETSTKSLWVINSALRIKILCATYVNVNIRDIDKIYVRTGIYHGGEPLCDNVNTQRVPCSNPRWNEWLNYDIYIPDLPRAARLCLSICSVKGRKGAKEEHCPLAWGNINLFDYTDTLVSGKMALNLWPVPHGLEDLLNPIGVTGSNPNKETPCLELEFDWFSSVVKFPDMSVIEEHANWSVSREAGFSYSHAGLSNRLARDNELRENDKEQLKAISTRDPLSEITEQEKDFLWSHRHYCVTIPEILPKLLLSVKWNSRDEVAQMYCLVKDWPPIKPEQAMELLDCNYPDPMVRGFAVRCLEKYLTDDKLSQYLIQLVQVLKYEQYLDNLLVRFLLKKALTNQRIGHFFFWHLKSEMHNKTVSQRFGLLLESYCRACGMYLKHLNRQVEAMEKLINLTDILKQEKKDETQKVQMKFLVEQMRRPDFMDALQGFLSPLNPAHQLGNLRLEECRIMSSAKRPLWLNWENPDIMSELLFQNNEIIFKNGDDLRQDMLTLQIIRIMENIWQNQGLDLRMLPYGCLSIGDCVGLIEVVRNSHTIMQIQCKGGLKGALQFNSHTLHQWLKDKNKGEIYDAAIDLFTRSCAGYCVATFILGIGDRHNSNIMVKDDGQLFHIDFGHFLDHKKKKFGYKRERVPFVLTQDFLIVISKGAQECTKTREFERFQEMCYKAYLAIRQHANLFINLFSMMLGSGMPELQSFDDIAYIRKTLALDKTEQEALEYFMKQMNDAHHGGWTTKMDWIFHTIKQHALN
Sequence (P27986 whole entry partner): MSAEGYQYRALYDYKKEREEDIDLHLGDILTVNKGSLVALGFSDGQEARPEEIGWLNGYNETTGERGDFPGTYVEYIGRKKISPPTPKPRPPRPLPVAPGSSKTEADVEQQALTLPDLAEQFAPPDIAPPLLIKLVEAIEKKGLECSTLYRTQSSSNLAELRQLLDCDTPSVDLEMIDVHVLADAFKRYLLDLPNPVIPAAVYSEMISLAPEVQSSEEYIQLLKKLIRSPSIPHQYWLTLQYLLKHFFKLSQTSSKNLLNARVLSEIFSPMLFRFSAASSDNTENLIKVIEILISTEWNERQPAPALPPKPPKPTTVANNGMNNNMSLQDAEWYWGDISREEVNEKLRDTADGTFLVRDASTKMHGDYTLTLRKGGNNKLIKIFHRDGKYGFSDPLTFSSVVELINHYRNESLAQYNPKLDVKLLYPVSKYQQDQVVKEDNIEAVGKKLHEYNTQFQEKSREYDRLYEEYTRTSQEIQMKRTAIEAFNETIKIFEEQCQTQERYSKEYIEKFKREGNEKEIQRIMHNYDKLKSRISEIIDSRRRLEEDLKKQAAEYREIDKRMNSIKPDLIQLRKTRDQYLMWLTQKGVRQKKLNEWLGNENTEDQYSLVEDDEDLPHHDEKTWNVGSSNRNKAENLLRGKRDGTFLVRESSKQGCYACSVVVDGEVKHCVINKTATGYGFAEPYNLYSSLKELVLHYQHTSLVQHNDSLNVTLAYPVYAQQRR
method: PI 3-Kinase (human) HTRF assay, p110α/p85α
Type: biochemical
condition_details: read-out: PI3K α IC50

Here's what some known entries look like.
CN1CC(C(=O)N2CCN(c3cnc4ccc(-c5ccc6oc(N)nc6c5)cc4n3)CC2)C1 | < 100 nM
Nc1nc2cc(-c3ccc4nccc(-c5ccncc5)c4c3)ccc2s1 | < 100 nM
CS(=O)(=O)N1CCC(Nc2ncnc3ccc(-c4ccc5oc(N)nc5c4)cc23)CC1 | < 100 nM
Nc1nc2cc(-c3cn4c(-c5ccncc5)cnc4cn3)ccc2o1 | < 100 nM

Switching to the query record.
Qu. # IC50 lookup, item Cc1nccn1-c1cnc2ccc(-c3ccc4oc(N)nc4c3)cc2n1
Ans. < 100 nM
